From: patent US20260199323A1

Tested on: SR
Test: CCK-8 tumor cell proliferation, SR
Type: cell-based, Human
Conditions: Homo sapiens; Table 15, ALK inhibitor based; SR; read-out: IC50 inhibiting proliferation of tumor cells, SR
Each entry below lists one item and its recorded IC50 value.

Cc1cc(Nc2ncc(Cl)c(Nc3ccccc3S(=O)(=O)C(C)C)n2)c(OC(C)C)cc1C1CCN(Cc2ccc3c(c2)CN(C2CCC(=O)NC2=O)C3=O)CC1 (stereo not drawn) = < 50 nM

May I ask what IC50 has been recorded for CCc1cc2c(cc1N1CCC(N3CCN(Cc4cccc5c4CN(C4CCC(=O)NC4=O)C5=O)CC3)CC1)C(C)(C)c1[nH]c3cc(C#N)ccc3c1C2=O (stereo not drawn) ?
< 50 nM

Please give the measured IC50 for this compound: CCc1cc2c(cc1N1CCN(Cc3ccc4c(c3)CN(C3CCC(=O)NC3=O)C4=O)CC1)C(C)(C)c1[nH]c3cc(C#N)ccc3c1C2=O (stereo not drawn)
< 50 nM

So what's the measured IC50 for this one? C[C@@H](Oc1cc(-c2cnn(C3CCN(Cc4ccc5c(c4)CN(C4CCC(=O)NC4=O)C5=O)CC3)c2)cnc1N)c1c(Cl)ccc(F)c1Cl (stereo partly drawn)
50 to 100 nM

Entry COc1cc(N2CCC(N3CCN(C)CC3)CC2)ccc1Nc1ncc(Cl)c(Nc2ccccc2P(C)(C)=O)n1 [brigatinib, reference compound] : reported IC50 = ?
< 50 nM

Given the entry COc1cc(N2CCN(Cc3cc(F)c4c(c3)CN(C3CCC(=O)NC3=O)C4=O)CC2)ccc1Nc1ncc(Cl)c(Nc2ccccc2P(C)(C)=O)n1 (stereo not drawn) , report its measured IC50.
< 50 nM

----------
System: PC-3
Test: CCK-8 tumor cell proliferation, PC-3
Format: cell-based, Human
Conditions: Table 16, designed based on BET inhibitors; 96 h; read-out: IC50 for inhibiting the proliferation of tumor cells, PC-3
pIC50: −log10 of the molar value.
Result Type: pIC50

What value of pIC50 has been recorded for this entry: Cc1sc2c(c1C)C(c1ccc(Cl)cc1)=N[C@@H](CC(=O)OC(C)(C)C)c1nnc(C)n1-2 [JQ-1, reference compound]
< 5.00

----------
Test system: MM.1S
Experiment: CCK-8 tumor cell proliferation, MM.1S
Format: cell-based
Conditions: Homo sapiens, MM1.S; Table 18, FAK inhibitor based; MM.1S; read-out: IC50 inhibiting proliferation of tumor cells, MM.1S
pIC50: −log10 of the molar value.
Result Type: pIC50

CN(c1cccc(CNc2nc(Nc3ccc(C4CCN(Cc5ccc6c(c5)CN(C5CCC(=O)NC5=O)C6=O)CC4)cc3)ncc2C(F)(F)F)c1)S(C)(=O)=O (stereo not drawn) = 5.30 to 6.00
CNC(=O)c1ccccc1Nc1cc(Nc2cc(C)c(C3CCN(Cc4cc5c(cc4F)C(=O)N(C4CCC(=O)NC4=O)C5)CC3)cc2OC(C)C)ncc1C(F)(F)F (stereo not drawn) = > 7.30
CNC(=O)c1ccccc1Nc1cc(Nc2ccc(N3CCN(Cc4cc5c(cc4F)C(=O)N(C4CCC(=O)NC4=O)C5)CC3)cc2OC)ncc1C(F)(F)F (stereo not drawn) = > 7.30
CNC(=O)c1ccccc1Nc1cc(Nc2ccc(N3CCC(N(C)Cc4ccc5c(c4)CN(C4CCC(=O)NC4=O)C5=O)CC3)cc2OC)ncc1C(F)(F)F (stereo not drawn) = 6.30 to 7.00
CS(=O)(=O)c1cccc(CNc2nc(Nc3ccc(N4CCN(Cc5ccc6c(c5F)CN(C5CCC(=O)NC5=O)C6=O)CC4)cc3)ncc2C(F)(F)F)c1 (stereo not drawn) = > 7.30

What reported pIC50 corresponds to CS(=O)(=O)c1cccc(CNc2nc(Nc3ccc(N4CCN(Cc5ccc6c(c5)CN(C5CCC(=O)NC5=O)C6=O)CC4)cc3)ncc2C(F)(F)F)c1 (stereo not drawn) on MM.1S?
> 7.30

Under MM.1S: pIC50 value of CS(=O)(=O)c1cccc(CNc2nc(Nc3ccc(N4CCN(Cc5cc6c(cc5F)C(=O)N(C5CCC(=O)NC5=O)C6)CC4)cc3)ncc2C(F)(F)F)c1 (stereo not drawn) ?
> 7.30

Item CNC(=O)c1ccccc1Nc1cc(Nc2cc(C)c(C3CCN(Cc4ccc5c(c4)CN(C4CCC(=O)NC4=O)C5=O)CC3)cc2OC(C)C)ncc1C(F)(F)F (stereo not drawn) with MM.1S - pIC50?
> 7.30

I'm curious: which pIC50 was measured for CNC(=O)c1ccccc1Nc1cc(Nc2cc(C)c(C3CCN(Cc4ccc5c(c4F)CN(C4CCC(=O)NC4=O)C5=O)CC3)cc2OC(C)C)ncc1C(F)(F)F (stereo not drawn) tested on MM.1S?
> 7.30
